Assay: protein stability index of a GFP-peptide fusion (yeast GPS) (PSI 1-4); higher = more stable; sorted into four equal gates, so the index is relative within each strain
Conditions: ubr1∆
Catalogue of protein stability index values

>  <chain>
TTFTKVAAKWNTSLISL [PRP8]

>  <protein stability index>
2.06

$$$$
>  <chain>
LTKAQKYLDQVLDHQRA [RPL17B]

>  <protein stability index>
2.98

$$$$
>  <chain>
QYQLLYNLKNDILTNLE [SWI1]

>  <protein stability index>
1.65

$$$$
>  <chain>
AGIRPKFILALNDEGEP [RPN1]

>  <protein stability index>
1.46

$$$$
>  <chain>
ISLIPELSVVLSGIIQD [RRI2]

>  <protein stability index>
1.99

$$$$
>  <chain>
KTAYSIYLSQNELTDAI [RPN1]

>  <protein stability index>
2.08

$$$$
>  <chain>
VEDDLVTVQTELNEEKK [SMC2]

>  <protein stability index>
2.85

$$$$
>  <chain>
IGDDGYDLLISTLTTIS [SRB5]

>  <protein stability index>
2.2

$$$$
